Target: Neuronal acetylcholine receptor subunit alpha-7 (Rattus norvegicus, UniProt Q05941)
Sequence (Q05941 whole entry): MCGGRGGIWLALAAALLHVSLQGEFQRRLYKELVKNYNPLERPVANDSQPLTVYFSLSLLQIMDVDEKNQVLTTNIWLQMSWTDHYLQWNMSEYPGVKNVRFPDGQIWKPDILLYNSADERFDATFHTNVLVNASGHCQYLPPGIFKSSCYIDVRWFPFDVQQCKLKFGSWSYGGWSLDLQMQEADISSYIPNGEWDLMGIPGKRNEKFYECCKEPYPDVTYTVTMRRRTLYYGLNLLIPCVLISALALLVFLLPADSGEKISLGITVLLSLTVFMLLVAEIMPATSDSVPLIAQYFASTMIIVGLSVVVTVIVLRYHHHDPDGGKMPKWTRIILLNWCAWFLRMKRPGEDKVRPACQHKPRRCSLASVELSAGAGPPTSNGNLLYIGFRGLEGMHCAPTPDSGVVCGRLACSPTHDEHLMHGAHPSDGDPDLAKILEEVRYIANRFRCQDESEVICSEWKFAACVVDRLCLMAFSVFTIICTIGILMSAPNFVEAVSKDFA
Assay remarks: Binding affinity to alpha7 nAChR in rat hippocampal membranes
Format: cell membranes, Hippocampus

- Compound: "c1cncc(C2CCC3CCN2CC3)c1 (stereo unspecified)"
  Quantity unit: "nM"
  Ki: 11

----------
Quick reference: Activity of the listed items.
Target: Neuronal acetylcholine receptor subunit alpha-7 (Homo sapiens, UniProt P36544)
Sequence (P36544 whole entry): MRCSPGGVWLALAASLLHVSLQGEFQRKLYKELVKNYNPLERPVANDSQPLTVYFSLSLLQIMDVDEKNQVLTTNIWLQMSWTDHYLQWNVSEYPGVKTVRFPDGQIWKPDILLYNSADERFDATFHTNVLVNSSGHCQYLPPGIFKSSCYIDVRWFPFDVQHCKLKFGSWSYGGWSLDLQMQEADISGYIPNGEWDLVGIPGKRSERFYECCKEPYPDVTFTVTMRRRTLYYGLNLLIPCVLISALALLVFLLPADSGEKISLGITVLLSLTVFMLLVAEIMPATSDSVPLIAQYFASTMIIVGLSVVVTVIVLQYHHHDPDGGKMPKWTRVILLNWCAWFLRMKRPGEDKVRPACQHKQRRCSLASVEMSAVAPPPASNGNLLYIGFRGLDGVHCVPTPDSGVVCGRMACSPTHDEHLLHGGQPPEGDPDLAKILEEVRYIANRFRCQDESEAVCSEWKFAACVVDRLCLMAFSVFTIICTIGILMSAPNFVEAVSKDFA
Assay remarks: Agonist activity at alpha7 nAChR at 32 uM
Format: functional

- Compound: "O=C(Oc1ccccc1)N1CCN2CCC1CC2"
  Target: "Neuronal acetylcholine receptor subunit alpha-7 (Homo sapiens, UniProt P36544)"
  Activity: "99%"
- Compound: "c1cnc2nc(N3CCN4CCC3CC4)oc2c1"
  Target: "Neuronal acetylcholine receptor subunit alpha-7 (Homo sapiens, UniProt P36544)"
  Activity: "220%"
- Compound: "c1ccc2oc(N3CCN4CCC3CC4)nc2c1"
  Target: "Neuronal acetylcholine receptor subunit alpha-7 (Homo sapiens, UniProt P36544)"
  Activity: "183%"
- Compound: "O=C(Nc1ccc(Br)cc1)OC1CN2CCC1CC2 (centres undefined)"
  Target: "Neuronal acetylcholine receptor subunit alpha-7 (Homo sapiens, UniProt P36544)"
  Activity: "90%"
